Data provenance: patent US5132111A

- Test system: cultured rat pituitary cells
- Format: cell-based
Non-standard residues stand in square brackets, D forms with d. Nle = CCCC[C@H](N)C(=O)O

Substance	secretion of β-endorphin (β-END-LI)
H-PPISLDLTFHLLREVLEMARAEQLAEQAHSNRRYMEEI-NH2	stimulates
H-SQE[dP]PISLDLTFHLLRE[Nle]LE[Nle]ARAEQEAEQAALNRLLLEEA-NH2 [[D-Pro^4, Nle^18,21]-AAHC]	stimulates
H-Ser-Gln-Glu-Pro-Pro-Ile-Ser-Leu-Asp-CML-Thr-Leu-Glu-Leu -Leu-Arg-Glu-Met-Leu-Glu-Met-Ala-Arg-Ala-Glu-Gln-Glu-Ala -Glu-Gln-Ala-Ala-Leu-Asn-Arg-Leu-Tyr-Leu-Glu-Glu-Ala-NH2 [[Leu^12, Glu^13, Tyr^37]-AAHC]	stimulates
